tested on: P12-Ichikawa; assay: cell viability relative to DMSO control; higher = less cytotoxic; details: RPMI 5 mM glucose + 10% FBS; 48 h; 46.1 µM
Experimental readout: cell viability (%)
Report only the number, with the unit % understood.

If you can, please state the reported cell viability value of COc1cc2c(Oc3ccc(NC(=O)C4(C(=O)Nc5ccc(F)cc5)CC4)cc3F)ccnc2cc1OCCCN1CCOCC1 . 4.54

Check c1cc(CN2CCCNCCNCCCNCC2)ccc1CN1CCCNCCNCCCNCC1 too. 106

Check CNC1[C@@H](O)C(O[C@@H]2C(O)C(O[C@H]3O[C@H]([C@@H](C)NC)CC[C@H]3N)[C@@H](N)C[C@H]2N)OC[C@]1(C)O (some centres not stated) too. 92.2

Check CCOc1cc(N)c(Cl)cc1C(=O)NCC1CN(Cc2ccc(F)cc2)CCO1 (configuration not stated) too. 112

Check CCOC(=O)N1CCN(/[N+]([O-])=N/Oc2ccc([N+](=O)[O-])cc2[N+](=O)[O-])CC1 too. 19.9

Check CC(=O)C\1=C(/C)C2=CN=C(NC3=CC=C(C=N3)N4CCNCC4)N=C2N(C5CCCC5)C1=O too. 61

Check CN1CCC(CC1)COC2=CN=C(N=C2)C3=CC(=CC=C3)CN4/N=C(\C=C/C4=O)C5=CC(=CC=C5)C#N too. 113

Check O=C(NC[C@H](O)CN1CCc2ccccc2C1)c1cc(NC2COC2)ncn1 too. 59.3

Check CC(C)(C)c1cc(C=C(C#N)C#N)cc(Br)c1O too. 100

Check CC[C@H]1/C=C\C=C/C[C@@H](C)[C@H](O)[C@@](C)(O)C(=O)[C@@H](C)[C@H](O)[C@@H](C)C(=O)[C@@H](C)[C@H](O)[C@@H](C)/C=C/C(=O)O[C@@H]2[C@H](C)[C@H](CC1)O[C@]1(CC[C@H](C)[C@H](C[C@@H](C)O)O1)[C@H]2C too. 5.47

Check CC(=O)N1CCN(c2ccc(OCc3nn(C)c(C)c3-c3cccc4c(CCCOc5cccc6ccccc56)c(C(=O)O)n(Cc5cccnc5)c34)cc2)CC1 too. 11

Check C[C@@]12O[C@@H](C[C@]1(O)CO)n1c3ccccc3c3c4c(c5c6ccccc6n2c5c31)CNC4=O too. 8.24

Check CCC1(c2ccc(N)cc2)CCC(=O)NC1=O (configuration not stated) too. 106

Check CCCCCCCc1ccc(CCc2cccc(O)c2C(=O)O)cc1 too. 91.3

Check Cc1cccc(C)c1OCC(=O)N[C@@H](Cc1ccccc1)[C@@H](O)C[C@H](Cc1ccccc1)NC(=O)[C@H](C(C)C)N1CCCNC1=O too. 56.8

Check C[N+]1(C)[C@@H]2C[C@@H](OC(=O)[C@H](CO)c3ccccc3)C[C@H]1[C@@H]1O[C@@H]12.[Br-] too. 110

Check O=C1Nc2ccc(Cl)cc2[C@@](C#CC2CC2)(C(F)(F)F)O1 too. 55.4

Check CC(=O)O[C@@]1(CC[C@H]2[C@@H]3\C=C(C)/C4=C/C(=O)CC[C@]4(C)[C@H]3CC[C@]12C)C(C)=O too. 85.5

Check C1CCC(C(CC2CCCCN2)C2CCCCC2)CC1 (configuration not stated) too. 54.2

Check CC(C)Oc1cc(Nc2nc(N[C@@H](C)c3ccc(F)cn3)ncc2Cl)n[nH]1 too. 40

Check COC[C@@H](NC(C)=O)C(=O)NCc1ccccc1 too. 53.5

Check C[S+](=O)([O-])N(Cc1ccco1)CC(O)Cn1c2ccccc2c2ccccc21 (configuration not stated) too. 42.1

====

tested on: NOMO1; assay: cell viability relative to DMSO control; higher = less cytotoxic; conditions: RPMI 5 mM glucose + 10% FBS; 48 h; 0.569 µM
Experimental readout: cell viability (%)
Report only the number, with the unit % understood.

If you can, please state the reported cell viability value of CC(=O)NC(CS)C(=O)O (stereo not given) . 82.7

Check O=C1Nc2ccc(Cl)cc2[C@@](C#CC2CC2)(C(F)(F)F)O1 too. 79.3

Check Cc1cccc(-c2nn(C(=S)Nc3ccccc3)cc2-c2ccnc3ccccc23)n1 too. 119

Check NC(CO)(CO)CCc1ccc(Sc2cccc(OCc3ccccc3)c2)cc1Cl too. 117

Check CCOC(=O)[C@H](CCc1ccccc1)N[C@@H](C)C(=O)N1CCC[C@H]1C(=O)O too. 97.7

====

test system: P12-Ichikawa; assay: cell viability relative to DMSO control; higher = less cytotoxic; settings: HPLM + 10% dialyzed FBS; 48 h; 5.12 µM
Experimental readout: cell viability (%)
Report only the number, with the unit % understood.

If you can, please state the reported cell viability value of CO[C@H]1C[C@@H]2CC[C@@H](C)[C@@](O)(O2)C(=O)C(=O)N2CCCC[C@H]2C(=O)O[C@H]([C@H](C)C[C@@H]2CC[C@@H](OC(=O)C(C)(CO)CO)[C@H](OC)C2)CC(=O)[C@H](C)/C=C(\C)[C@@H](O)[C@@H](OC)C(=O)[C@H](C)C[C@H](C)/C=C/C=C/C=C/1C . 87.2

Check CCC1(c2ccc(N)cc2)CCC(=O)NC1=O (stereo unspecified) too. 101

Check CC1(C)CCC(=C(CN2CCN(CC2)C3=CC=C(C=C3)C(=O)N[S+]([O-])(=O)C4=CC(=C(N[C@H](CCN5CCOCC5)CSC6=CC=CC=C6)C=C4)[S+]([O-])(=O)C(F)(F)F)\C1)/C7=CC=C(Cl)C=C7 too. 7.29

Check C\C1=C\C(=O)C2=C(C=CC=C2)C1=O too. 122

Check OCc1ccc(-c2nn(Cc3ccccc3)c3ccccc23)o1 too. 96.5

Check Cc1cc(Nc2nc(N[C@@H](C)c3ncc(F)cn3)ncc2Cl)n[nH]1 too. 70.6

Check CN(C)C(=O)c1ccc([S+](=O)([O-])c2ccc(NC(=O)[C@@](C)(O)C(F)(F)F)c(Cl)c2)cc1 too. 100

Check c1cc(CN2CCCNCCNCCCNCC2)ccc1CN1CCCNCCNCCCNCC1 too. 102

Check C[S+](=O)([O-])N(Cc1ccco1)CC(O)Cn1c2ccccc2c2ccccc21 (stereo unspecified) too. 89.3

Check O=C1Nc2ccc(Cl)cc2[C@@](C#CC2CC2)(C(F)(F)F)O1 too. 96.2

Check CC(=O)C\1=C(/C)C2=CN=C(NC3=CC=C(C=N3)N4CCNCC4)N=C2N(C5CCCC5)C1=O too. 88.5

Check CC(C)(C)C(=O)OCOP(=O)(COCCn1cnc2c(N)ncnc21)OCOC(=O)C(C)(C)C too. 27.4

Check Clc1cc(Cl)cc(CNc2ncncc2-c2ccc3c(c2)OCO3)c1 too. 92.6

Check OC[C@H]1O[C@H]([C@@H](F)[C@@H]1O)N2\C=C/C(=O)NC2=O too. 99.6

Check CCC(=O)OCC(=O)[C@@]1(OC(=O)CC)[C@@H](C)C[C@H]2[C@@H]3CCC4=CC(=O)C=C[C@]4(C)[C@@]3(F)[C@@H](O)C[C@@]21C too. 64.3

Check O=C(/C=C/c1c(C(=O)[O-])[nH]c2cc(Cl)cc(Cl)c12)Nc1ccccc1 too. 113

Check Cc1c(Cn2c(C)nc3c(C(=O)O)cc(N4CCOCC4)cc32)cccc1C(F)(F)F too. 104

Check Cn1c(Nc2ccc(C(F)(F)F)cc2)nc2cc(Oc3ccnc(-c4nc(C(F)(F)F)c[nH]4)c3)ccc21 too. 111

Check ClC1=CC(=CC=C1)N2CCN(CCCN3\N=C4\C=C/C=C\N4C3=O)CC2 too. 140

Check NC(CO)(CO)CCc1ccc(Sc2cccc(OCc3ccccc3)c2)cc1Cl too. 76.2

Check COc1cc(C(C)=O)ccc1OCCCN1CCC(c2noc3cc(F)ccc23)CC1 too. 129

Check C[N+]1(C)[C@@H]2C[C@@H](OC(=O)[C@H](CO)c3ccccc3)C[C@H]1[C@@H]1O[C@@H]12.[Br-] too. 100

Check COc1cc(C)c(Sc2cnc(NC(=O)c3ccc(CNC(C)C(C)(C)C)cc3)s2)cc1C(=O)N1CCN(C(C)=O)CC1 (stereo unspecified) too. 109

Check Cc1ncc(OC[C@@]2(c3cccc(F)c3)C[C@H]2C(=O)Nc2ccc(F)cn2)c(C)n1 too. 102

Check O=C1\C=C/C[C@@H]2[C@H]3CCCN4CCC[C@@H](CN12)[C@@H]34 too. 98.9

Check CC(C)n1nc(-c2ccc3oc(N)nc3c2)c2c(N)ncnc21 too. 66.7

Check CC(C)C[C@H](NC(=O)[C@@H](NC(=O)c1cccc(-c2ccccc2)n1)[C@@H](C)O)B(O)O too. 3.21

Check CC(C)Oc1cc(Nc2nc(N[C@@H](C)c3ccc(F)cn3)ncc2Cl)n[nH]1 too. 14.7

Check CCOc1ccc(Nc2nc(-c3c(C)nc4ccccn34)cs2)cc1 too. 16.3

Check Oc1ccc(/C=C/c2cc(O)cc(O)c2)cc1 too. 105

Check C[C@@]12O[C@@H](C[C@]1(O)CO)n1c3ccccc3c3c4c(c5c6ccccc6n2c5c31)CNC4=O too. 23.2
